In this section we review reported Activity values for a set of compounds.
target: von Hippel-Lindau disease tumor suppressor/Indoleamine 2,3-dioxygenase 1 (Homo sapiens) (UniProt P14902+P40337); test: Protac activity at IDO1/VHL in IFNgamma-stimulated human U87 cells assessed as IDO1 degradation at 10 uM measured after 24 hrs by Western blotting analysis relative to control; assay type: cell-based
Sequence (P14902 whole entry, looked up): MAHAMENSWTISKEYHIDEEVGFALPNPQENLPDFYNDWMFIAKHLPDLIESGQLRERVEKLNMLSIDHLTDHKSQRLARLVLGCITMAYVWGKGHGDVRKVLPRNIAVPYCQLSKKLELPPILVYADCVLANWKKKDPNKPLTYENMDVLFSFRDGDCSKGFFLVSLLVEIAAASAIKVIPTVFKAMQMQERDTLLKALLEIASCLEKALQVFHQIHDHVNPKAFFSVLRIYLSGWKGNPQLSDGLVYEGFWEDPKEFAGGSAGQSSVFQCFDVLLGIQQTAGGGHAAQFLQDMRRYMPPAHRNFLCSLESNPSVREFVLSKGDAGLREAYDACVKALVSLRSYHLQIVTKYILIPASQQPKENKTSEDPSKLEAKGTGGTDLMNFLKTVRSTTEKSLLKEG
Sequence (P40337 whole entry, looked up): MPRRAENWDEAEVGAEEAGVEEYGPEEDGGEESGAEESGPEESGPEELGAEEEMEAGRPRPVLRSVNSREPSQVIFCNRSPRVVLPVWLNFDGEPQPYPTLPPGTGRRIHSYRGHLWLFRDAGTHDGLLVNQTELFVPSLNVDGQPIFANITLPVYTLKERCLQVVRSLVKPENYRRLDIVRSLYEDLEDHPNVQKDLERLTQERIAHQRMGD

smiles.data	Activity (%)
Cc1ncsc1-c1ccc(CNC(=O)[C@@H]2C[C@@H](O)CN2C(=O)[C@@H](NCCCCCCCOc2ccc(NC(=O)[C@H](C)[C@H]3CC[C@@H](c4ccnc5ccc(F)cc54)CC3)cc2)C(C)(C)C)cc1	0
Cc1ncsc1-c1ccc(CNC(=O)[C@@H]2C[C@@H](O)CN2C(=O)[C@@H](NCCOCCC(=O)N2CCC(Oc3ccc(NC(=O)[C@H](C)[C@H]4CC[C@@H](c5ccnc6ccc(F)cc65)CC4)cc3)CC2)C(C)(C)C)cc1	88
Cc1ncsc1-c1ccc(CNC(=O)[C@@H]2C[C@@H](O)CN2C(=O)[C@@H](NC(=O)C2(F)CC2)C(C)(C)C)c(OCCOCCOCCCN2CCC(Oc3ccc(NC(=O)[C@H](C)[C@H]4CC[C@@H](c5ccnc6ccc(F)cc65)CC4)cc3)CC2)c1	0

* * *

In this section we review reported Activity values for a set of compounds.
target: von Hippel-Lindau disease tumor suppressor/Indoleamine 2,3-dioxygenase 1 (Homo sapiens) (UniProt P14902+P40337); experiment: Protac activity at IDO1/VHL in IFNgamma-stimulated human U87 cells assessed as IDO1 degradation at 10 uM measured after 24 hrs by Western blotting analysis relative to control; type: cell-based
property.measured: Activity (%)

smiles.data	reported.result
Cc1ncsc1-c1ccc(CNC(=O)[C@@H]2C[C@@H](O)CN2C(=O)[C@@H](NC(=O)C2(F)CC2)C(C)(C)C)c(OCCOCCOCCOCCOc2ccc(NC(=O)[C@H](C)[C@H]3CC[C@@H](c4ccnc5ccc(F)cc54)CC3)cc2)c1	0
Cc1ncsc1-c1ccc(CNC(=O)[C@@H]2C[C@@H](O)CN2C(=O)[C@@H](NCCOCCOc2cc(NC(=O)[C@H](C)[C@H]3CC[C@@H](c4ccnc5ccc(F)cc54)CC3)ccc2Cl)C(C)(C)C)cc1	0
Cc1ncsc1-c1ccc(CNC(=O)[C@@H]2C[C@@H](O)CN2C(=O)[C@@H](NCCOCCOCCOCCOCCOCCOc2cccc(NC(=O)[C@H](C)[C@H]3CC[C@@H](c4ccnc5ccc(F)cc54)CC3)c2)C(C)(C)C)cc1	0
Cc1ncsc1-c1ccc(CNC(=O)[C@@H]2C[C@@H](O)CN2C(=O)[C@@H](NCCOCCOc2ccc(NC(=O)[C@H](C)[C@H]3CC[C@@H](c4ccnc5ccc(F)cc54)CC3)cc2)C(C)(C)C)cc1	0
Cc1ncsc1-c1ccc(CNC(=O)[C@@H]2C[C@@H](O)CN2C(=O)[C@@H](NC(=O)C2(F)CC2)C(C)(C)C)c(OCCCOc2cc(NC(=O)[C@H](C)[C@H]3CC[C@@H](c4ccnc5ccc(F)cc54)CC3)ccc2Cl)c1	0
Cc1ncsc1-c1ccc(CNC(=O)[C@@H]2C[C@@H](O)CN2C(=O)[C@@H](NC(=O)C2(F)CC2)C(C)(C)C)c(OCCOCCOCCOCCOCCOc2cc(NC(=O)[C@H](C)[C@H]3CC[C@@H](c4ccnc5ccc(F)cc54)CC3)ccc2Cl)c1	0
Cc1ncsc1-c1ccc(CNC(=O)[C@@H]2C[C@@H](O)CN2C(=O)[C@@H](NC(=O)C2(F)CC2)C(C)(C)C)c(OCCCCCCOc2cc(NC(=O)[C@H](C)[C@H]3CC[C@@H](c4ccnc5ccc(F)cc54)CC3)ccc2Cl)c1	0
Cc1ncsc1-c1ccc(CNC(=O)[C@@H]2C[C@@H](O)CN2C(=O)[C@@H](NC(=O)C2(F)CC2)C(C)(C)C)c(OCCOCCOCCOCCOCCOCCOc2cc(NC(=O)[C@H](C)[C@H]3CC[C@@H](c4ccnc5ccc(F)cc54)CC3)ccc2Cl)c1	0
Cc1ncsc1-c1ccc(CNC(=O)[C@@H]2C[C@@H](O)CN2C(=O)[C@@H](NCCOCCOCCOc2cc(NC(=O)[C@H](C)[C@H]3CC[C@@H](c4ccnc5ccc(F)cc54)CC3)ccc2Cl)C(C)(C)C)cc1	0
Cc1ncsc1-c1ccc(CNC(=O)[C@@H]2C[C@@H](O)CN2C(=O)[C@@H](NCCCCOc2ccc(NC(=O)[C@H](C)[C@H]3CC[C@@H](c4ccnc5ccc(F)cc54)CC3)cc2)C(C)(C)C)cc1	0
Cc1ncsc1-c1ccc(CNC(=O)[C@@H]2C[C@@H](O)CN2C(=O)[C@@H](NC(=O)C2(F)CC2)C(C)(C)C)c(OCCOCCOCCOc2ccc(NC(=O)[C@H](C)[C@H]3CC[C@@H](c4ccnc5ccc(F)cc54)CC3)cc2)c1	0
Cc1ncsc1-c1ccc(CNC(=O)[C@@H]2C[C@@H](O)CN2C(=O)[C@@H](NC(=O)C2(F)CC2)C(C)(C)C)c(OCCOCCOc2cc(NC(=O)[C@H](C)[C@H]3CC[C@@H](c4ccnc5ccc(F)cc54)CC3)ccc2Cl)c1	23
Cc1ncsc1-c1ccc(CNC(=O)[C@@H]2C[C@@H](O)CN2C(=O)[C@@H](NC(=O)C2(F)CC2)C(C)(C)C)c(OCCOCCOCCC(=O)N2CC(Oc3ccc(NC(=O)[C@H](C)[C@H]4CC[C@@H](c5ccnc6ccc(F)cc65)CC4)cc3)C2)c1	91
Cc1ncsc1-c1ccc(CNC(=O)[C@@H]2C[C@@H](O)CN2C(=O)[C@@H](NC(=O)C2(F)CC2)C(C)(C)C)c(OCCOCCOCCOCCOCCOCCOc2ccc(NC(=O)[C@H](C)[C@H]3CC[C@@H](c4ccnc5ccc(F)cc54)CC3)cc2)c1	27
Cc1ncsc1-c1ccc(CNC(=O)[C@@H]2C[C@@H](O)CN2C(=O)[C@@H](NC(=O)C2(F)CC2)C(C)(C)C)c(OCCOCCC(=O)N2CCC(Oc3ccc(NC(=O)[C@H](C)[C@H]4CC[C@@H](c5ccnc6ccc(F)cc65)CC4)cc3)CC2)c1	72
Cc1ncsc1-c1ccc(CNC(=O)[C@H]2C[C@H](O)CN2C(=O)[C@H](NCCCCCCOc2cc(NC(=O)[C@H](C)[C@H]3CC[C@@H](c4ccnc5ccc(F)cc54)CC3)ccc2Cl)C(C)(C)C)cc1	21
Cc1ncsc1-c1ccc(CNC(=O)[C@@H]2C[C@@H](O)CN2C(=O)[C@@H](NC(=O)C2(F)CC2)C(C)(C)C)c(OCCCCCCCCCCOc2ccc(NC(=O)[C@H](C)[C@H]3CC[C@@H](c4ccnc5ccc(F)cc54)CC3)cc2)c1	23
Cc1ncsc1-c1ccc(CNC(=O)[C@@H]2C[C@@H](O)CN2C(=O)[C@@H](NCCOCCOCCOCCOc2ccc(NC(=O)[C@H](C)[C@H]3CC[C@@H](c4ccnc5ccc(F)cc54)CC3)cc2)C(C)(C)C)cc1	0

* * *

assay: Half life in C57BL/6 mouse plasma at 25 mg/kg, ip; assay type: ADME, organism-based
property.measured: half-life (min)

compound	property.measured	reported.result
C[C@@H](C(=O)Nc1ccc(OC2CCN(C(=O)CCOCCOCCNc3cccc4c3C(=O)N(C3CCC(=O)NC3=O)C4=O)CC2)cc1)[C@H]1CC[C@@H](c2ccnc3ccc(F)cc32)CC1 (stereo partly specified)	half-life	150

* * *

In this section we review reported Activity values for a set of compounds.
molecular target: Protein cereblon/Indoleamine 2,3-dioxygenase 1 (Homo sapiens, UniProt P14902+Q96SW2); assay: Protac activity at IDO1/CRBN in IFNgamma-stimulated human U87 cells assessed as IDO1 degradation at 10 uM measured after 24 hrs by Western blotting analysis relative to control; assay type: cell-based
Sequence (Q96SW2 whole entry, looked up, one chain of several): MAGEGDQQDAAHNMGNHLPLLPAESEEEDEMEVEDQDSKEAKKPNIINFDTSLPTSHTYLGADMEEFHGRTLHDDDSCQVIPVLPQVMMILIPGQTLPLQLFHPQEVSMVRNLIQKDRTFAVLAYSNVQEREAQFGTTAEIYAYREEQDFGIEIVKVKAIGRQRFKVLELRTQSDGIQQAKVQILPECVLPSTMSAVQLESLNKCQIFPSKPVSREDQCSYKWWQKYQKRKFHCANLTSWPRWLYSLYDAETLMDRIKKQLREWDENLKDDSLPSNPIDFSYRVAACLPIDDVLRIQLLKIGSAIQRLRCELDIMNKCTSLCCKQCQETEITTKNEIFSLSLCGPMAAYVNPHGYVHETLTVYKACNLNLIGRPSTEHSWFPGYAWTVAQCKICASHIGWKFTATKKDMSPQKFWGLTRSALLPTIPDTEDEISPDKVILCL

compound	Activity (%)
C[C@@H](C(=O)Nc1ccc(OC2CCN(C(=O)CCOCCOCCOc3cccc4c3C(=O)N(C3CCC(=O)NC3=O)C4=O)CC2)cc1)[C@H]1CC[C@@H](c2ccnc3ccc(F)cc32)CC1 (stereo partly specified)	80
C[C@@H](C(=O)Nc1ccc(OCCOCCOCCNc2cccc3c2C(=O)N(C2CCC(=O)NC2=O)C3=O)cc1)[C@H]1CC[C@@H](c2ccnc3ccc(F)cc32)CC1 (stereo partly specified)	77
C[C@@H](C(=O)Nc1ccc(Cl)c(OCCOCCOCCOCCNc2cccc3c2C(=O)N(C2CCC(=O)NC2=O)C3=O)c1)[C@H]1CC[C@@H](c2ccnc3ccc(F)cc32)CC1 (stereo partly specified)	0
C[C@@H](C(=O)Nc1ccc(Cl)c(OCCOCCOCCNc2cccc3c2C(=O)N(C2CCC(=O)NC2=O)C3=O)c1)[C@H]1CC[C@@H](c2ccnc3ccc(F)cc32)CC1 (stereo partly specified)	71
C[C@@H](C(=O)Nc1ccc(Cl)c(OCCOCCOc2cccc3c2C(=O)N(C2CCC(=O)NC2=O)C3=O)c1)[C@H]1CC[C@@H](c2ccnc3ccc(F)cc32)CC1 (stereo partly specified)	6
C[C@@H](C(=O)Nc1ccc(OCCCCCCCNC(=O)COc2cccc3c2C(=O)N(C2CCC(=O)NC2=O)C3=O)cc1)[C@H]1CC[C@@H](c2ccnc3ccc(F)cc32)CC1 (stereo partly specified)	0
C[C@@H](C(=O)Nc1ccc(OC2CN(C(=O)CCOCCOCCNc3cccc4c3C(=O)N(C3CCC(=O)NC3=O)C4=O)C2)cc1)[C@H]1CC[C@@H](c2ccnc3ccc(F)cc32)CC1 (stereo partly specified)	94
C[C@@H](C(=O)Nc1ccc(OCCOCCNc2cccc3c2C(=O)N(C2CCC(=O)NC2=O)C3=O)cc1)[C@H]1CC[C@@H](c2ccnc3ccc(F)cc32)CC1 (stereo partly specified)	23
C[C@@H](C(=O)Nc1ccc(OCCOCCNC(=O)COc2cccc3c2C(=O)N(C2CCC(=O)NC2=O)C3=O)cc1)[C@H]1CC[C@@H](c2ccnc3ccc(F)cc32)CC1 (stereo partly specified)	48
C[C@@H](C(=O)Nc1ccc(OC2CN(C(=O)CCOCCOc3cccc4c3C(=O)N(C3CCC(=O)NC3=O)C4=O)C2)cc1)[C@H]1CC[C@@H](c2ccnc3ccc(F)cc32)CC1 (stereo partly specified)	86
C[C@@H](C(=O)Nc1ccc(OC2CCN(C(=O)CCOCCNC(=O)COc3cccc4c3C(=O)N(C3CCC(=O)NC3=O)C4=O)CC2)cc1)[C@H]1CC[C@@H](c2ccnc3ccc(F)cc32)CC1 (stereo partly specified)	38

This collection of values is drawn from ChEMBL document CHEMBL5150051.
